# test.target: Bradyrhizobium elkanii SAHase (BeSAHase) (Bradyrhizobium elkanii)
# Sequence (A0A087WNH6 whole entry): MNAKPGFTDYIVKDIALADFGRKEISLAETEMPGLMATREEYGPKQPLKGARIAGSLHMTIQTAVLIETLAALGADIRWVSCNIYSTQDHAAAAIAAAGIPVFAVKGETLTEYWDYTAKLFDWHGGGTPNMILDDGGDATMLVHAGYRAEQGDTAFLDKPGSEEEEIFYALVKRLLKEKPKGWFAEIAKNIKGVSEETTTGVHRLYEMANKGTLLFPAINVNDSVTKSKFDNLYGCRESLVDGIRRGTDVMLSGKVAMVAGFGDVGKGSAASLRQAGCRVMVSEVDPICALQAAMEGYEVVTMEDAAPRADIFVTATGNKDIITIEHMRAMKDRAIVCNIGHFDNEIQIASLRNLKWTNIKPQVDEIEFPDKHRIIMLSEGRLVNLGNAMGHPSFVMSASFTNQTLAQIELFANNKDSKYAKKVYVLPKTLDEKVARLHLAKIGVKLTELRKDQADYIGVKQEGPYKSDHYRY
measure: Ki

q: Fill in: Ki of N#Cc1ccc[n+](Cc2ccccc2)c1 is ___
a: ~2000 µM
